- Test system: HT29 colon
- assayMethodText: NCI tumour cell line growth inhibition, 48 h
testReadout: TGI

// `CCSc1nc(N=Cc2ccccc2O)c2cn[nH]c2n1` : TGI value = > 100 µM

// `COC(=O)C1=CN(CC2=CC(=O)C(C)=CC2=O)C=C(C(=O)OC)C1c1ccccc1OC` : TGI value = > 100 µM

// `CN1CCN(Cc2cc3c(nn2)-c2ccccc2C3=O)CC1` : TGI value = > 100 µM

// `CN1Nc2ccccc2CC1=O` : TGI value = > 100 µM

// `CCCCCCCCSC1=C(Cl)C(=O)C(OC)=C(OC)C1=O` : TGI value = 34.8 µM

// `O=C1/C(=C/c2ccc(Cl)cc2)CCCc2ccccc21` : TGI value = 19.7 µM

----------
- Test system: HT29 colon
- assayMethodText: NCI tumour cell line growth inhibition, 48 h
testReadout: TGI (µM)
Your answer should be a plain number; it is taken to be in µM.

Worked cases, answers included:
{"chemicalSmiles": "CNCCCNc1ccnc2cc(Cl)ccc12", "unitTag": "µM", "quantitativeResult": 55.5}
{"chemicalSmiles": "CC1(C)CCc2c(ccc(C(=O)/C=C/c3ccc(O)cc3)c2O)O1", "unitTag": "µM", "quantitativeResult": 23.9}

Now for another entry.
// `O=C1c2cccc3cccc(c23)C(=O)N1CCN(CCO)CCO` : TGI value = 76.1

----------
- System: UO-31 renal
- assayMethodText: NCI tumour cell line growth inhibition, 48 h
Measured TGI, listed per entry for reference.
Your answer should be a plain number; it is taken to be in µM.

Worked cases, answers included:
{"compound": "O=C1/C(=C/c2ccc(Cl)cc2)CCCc2ccccc21", "testTarget": "UO-31 renal", "testReadout": "TGI", "quantitativeResult": 35.4}
{"compound": "CCCN(CCC)c1c([N+](=O)[O-])cc(C(=O)N(CC)CC)cc1[N+](=O)[O-]", "testTarget": "UO-31 renal", "testReadout": "TGI", "quantitativeResult": 63.1}

Now for another entry.
// CCOC(=O)/C=C1/C(CCCOCc2ccccc2)C2CCCC23CC2(CCN13)OCCO2 (stereo unspecified) : TGI value = 64.5

----------
- Tested on: EKVX NSCLC
- assayMethodText: NCI tumour cell line growth inhibition, 48 h
Measured TGI, listed per entry for reference.
Your answer should be a plain number; it is taken to be in µM.

Worked cases, answers included:
{"compound": "COc1ccc(CNc2c3ccccc3nc3ccccc23)cc1F", "unitTag": "µM", "quantitativeResult": 14.5}
{"compound": "Cc1cc(C(=O)CSC(=S)SC(C)(C)C)ccc1Cl", "unitTag": "µM", "quantitativeResult": 56.8}
{"compound": "Nc1nc(Cl)nc2c1ncn2C1CC(O)C(CO)O1 (stereo not given)", "unitTag": "µM", "quantitativeResult": 34.5}

// `c1ccc2c(c1)CCc1c(-c3ccncc3)n[nH]c1-2` : TGI value = 75.5

// `C=C1C(=O)[C@@]23CC[C@@H]4[C@@]5(C)CCC[C@@]4(OC5=O)[C@@]2(C)CC[C@@H]1C3` : TGI value = 11.8

----------
Here's what we have: GI50 numbers for NCI-H460 lung.

Worked cases, answers included:
{"compound": "C=CC12CCN(CC1)C(C(O)c1ccnc3ccc(OC)cc13)C2 (stereo not given)", "GI50": "> 100 µM"}
{"compound": "COC(=O)C1=CN(CC2=CC(=O)C(C)=CC2=O)C=C(C(=O)OC)C1c1ccccc1OC", "GI50": "33.7 µM"}
{"compound": "O=C(Nc1nc(-c2c[nH]c3ccccc23)cs1)c1n[nH]c(=O)c2ccccc12", "GI50": "0.451 µM"}

Reported GI50 (NCI-H460 lung) for entry `Cc1nc2sccn2c1-c1nc2sccn2c1/C=C1/C(=O)Nc2ccccc21` is 3.09 µM

Reported GI50 (NCI-H460 lung) for entry `Nc1c(C(=O)Nc2ccccn2)sc2nc3c(cc12)C(=O)CCC3` is 0.596 µM

----------
- Test system: OVCAR-8 ovarian
- assayMethodText: NCI tumour cell line growth inhibition, 48 h
Measured GI50, listed per entry for reference.

{"chemicalSmiles": "COc1ccc(CNc2c3ccccc3nc3ccccc23)cc1F", "GI50": "3.52 µM"}

// `O=C(Nc1ncc(Cc2cccc(C(F)(F)F)c2)s1)c1ccc2c(c1)OCCO2` : GI50 value = 0.485 µM

// `NC(N)=Nc1nc2ccccc2o1` : GI50 value = 49.2 µM

// `CCN(CCNS(C)(=O)=O)c1ccc(N)c(C)c1` : GI50 value = 3.94 µM

// `CO[C@@H]1CC[C@]2(C)OC[C@H](C)[C@@H]3C[C@@H](C)[C@@H](OC(C)=O)[C@@H]4[C@H]3[C@@H]2O[C@H]4C[C@@]1(C)O` : GI50 value = > 100 µM

// `C=C(CN(C)Cc1ccccc1)c1ccc(NC(=O)c2ccc(C(=C)CN(C)Cc3ccccc3)cc2)cc1` : GI50 value = 45.3 µM

// `CCCCCCn1c(-c2ccc(C(=O)O/N=C(\N)c3ccc4c(c3)OCO4)cc2)nc(-c2ccccc2)c1-c1ccccc1` : GI50 value = 2.46 µM

// `COc1ccc(Cl)cc1NC(=O)c1ccc(NC2=C(Cl)C(=O)N(Cc3ccccc3)C2=O)cc1` : GI50 value = 19.4 µM

// `CNCCCNc1ccnc2cc(Cl)ccc12` : GI50 value = 28.3 µM

// `COC(=O)C1=CN(CC2=CC(=O)C(C)=CC2=O)C=C(C(=O)OC)C1c1ccccc1OC` : GI50 value = 17.6 µM

----------
- Tested on: K-562 leukemia
- assayMethodText: NCI tumour cell line growth inhibition, 48 h
Measured TGI, listed per entry for reference.

{"compound": "CCN(C(=O)N[C@@H](C)C(=O)N[C@@H](Cc1ccccc1)C(=O)OC)c1ccccc1", "testReadout": "TGI", "result": "> 100 µM"}
{"compound": "CNc1cc2oc(=O)cc(C)c2cc1C", "testReadout": "TGI", "result": "> 100 µM"}
{"compound": "CC1(C)C=CC(=O)C(O)C(C)(C)C1=O (stereo not drawn)", "testReadout": "TGI", "result": "> 100 µM"}
{"compound": "C=C(CN(C)C)C(=O)c1ccc(C(=O)C(=C)CN(C)C)cc1", "testReadout": "TGI", "result": "> 100 µM"}
{"compound": "CCOC(=O)CNC(=O)NC12CC3CC(CC(C3)C1)C2", "testReadout": "TGI", "result": "> 550 µM"}
{"compound": "CC12c3c4ccc(C=O)c3Oc3ccc(C=O)c(c31)Oc1ccc(C=O)c(c12)O4", "testReadout": "TGI", "result": "> 25 µM"}
{"compound": "CC(C)=CCC1=C(O)c2ccccc2C(=O)C1=O", "testReadout": "TGI", "result": "> 100 µM"}
{"compound": "O=c1[nH]c(O)c(C=Nc2ccc(-c3nc4ccccc4o3)cc2)c(=O)[nH]1", "testReadout": "TGI", "result": "> 100 µM"}
{"compound": "O=C1CSC2(CC(/C=C/c3cccs3)=NN2c2cccc(S(=O)(=O)O)c2)N1c1nc2ccccc2s1 (stereo not drawn)", "testReadout": "TGI", "result": "> 100 µM"}
{"compound": "CSc1nc2c(c(N(C)C)n1)C(O)n1c(nc3ccccc31)S2 (stereo not drawn)", "testReadout": "TGI", "result": "> 100 µM"}

// `N#Cc1sc2c(c1OC(=O)c1ccc(C(F)(F)F)cc1)c(=O)n(-c1ccccc1)c(=S)n2-c1ccccc1` : TGI value = > 100 µM

// O=C(O)c1cccc(S(=O)(=O)NN2C(=O)CSC2c2ccc(Cl)cc2Cl)c1 (stereo not drawn) : TGI value = > 100 µM

----------
- Test system: HOP-92 NSCLC
- assayMethodText: NCI tumour cell line growth inhibition, 48 h
Measured TGI, listed per entry for reference.
Your answer should be a plain number; it is taken to be in µM.

Worked cases, answers included:
{"chemicalSmiles": "C=C1C(=O)[C@@]23CC[C@@H]4[C@@]5(C)CCC[C@@]4(OC5=O)[C@@]2(C)CC[C@@H]1C3", "unitTag": "µM", "quantitativeResult": 57.7}
{"chemicalSmiles": "CCOC(=O)c1c(C)c2c(n1Cc1ccccc1)CSCC2=O", "unitTag": "µM", "quantitativeResult": 19.8}
{"chemicalSmiles": "COc1ccc(-c2cc(=O)oc3c4c(ccc23)OCN(Cc2ccc(F)cc2)C4)cc1", "unitTag": "µM", "quantitativeResult": 24.2}

Now for another entry.
// `CC(C)(CO)CNc1nc(N)nc(Cl)c1/C=N/O` : TGI value = 84.7

----------
- System: NCI/ADR-RES ovarian
- assayMethodText: NCI tumour cell line growth inhibition, 48 h; in the data active = GI50 below about 0.43 µM; inactive = the rest
Where a SMILES comes first, the peptide text is derived from it. The star is where a group is joined. Palmitoyl = CCCCCCCCCCCCCCCC(=O)*
Return exactly one item of active, inactive

These solved cases illustrate the format of a correct answer.
{"compound": "C=C(C)C(C1C=C(CCC(C=O)=C(C)C)C(=O)O1)C1(OC)C=C(C)C(=O)O1 (stereo not given)", "answerLabel": "inactive"}
{"compound": "NNc1ncnc2nc[nH]c12", "answerLabel": "inactive"}
{"compound": "COc1cccc2c1O/C(=C\\c1ccc([N+](=O)[O-])s1)C2=O", "answerLabel": "inactive"}
{"compound": "CCCCCCCCCCCCCCCC(=O)N1CCCC1C(=O)NCC(=O)NC(Cc1ccccc1)C(=O)N1CCCC1C(=O)NC(CO)C(=O)NC(Cc1ccc(O)cc1)C(=O)NC(CCCCN)C(=O)NC(CC(C)C)C(=O)NC(CCCN=C(N)N)C(=O)N1CCCC1C(=O)NCC(N)=O (stereo not given) (Palmitoyl-PGFPSYKLRPG-NH2; configuration not given here)", "answerLabel": "inactive"}
{"compound": "Nc1c(C(=O)Nc2ccccn2)sc2nc3c(cc12)C(=O)CCC3", "answerLabel": "inactive"}
{"compound": "COc1cc2c(cc1OCCCCCN1CCN(c3ncnc4ccccc34)CC1)N=CC1CCCN1C2=O (stereo not given)", "answerLabel": "active"}
{"compound": "NC(N)=Nc1nc2ccccc2o1", "answerLabel": "inactive"}
{"compound": "CCN(Cc1c(F)cccc1OC)c1ccc(CO)c(Cl)c1", "answerLabel": "inactive"}

Check the results log: what was the call for `NCCCn1c2c(c3ccc([N+](=O)[O-])cc3c1=O)C(=O)c1cc(I)ccc1-2` ? active

Check the results log: what was the call for `Cc1cccc(NC2=C(Cl)C(=O)c3nc(C)ccc3C2=O)c1` ? inactive

Check the results log: what was the call for `CNCCCNc1ccnc2cc(Cl)ccc12` ? inactive

Check the results log: what was the call for `CCOC(=O)c1c(C)c2c(n1Cc1ccccc1)CSCC2=O` ? inactive

Check the results log: what was the call for `O=C(Nc1ncc(Cc2cccc(C(F)(F)F)c2)s1)c1ccc2c(c1)OCCO2` ? active

Check the results log: what was the call for N#CC(I)CS(=O)(=O)c1ccccc1 (stereo not given) ? inactive

Check the results log: what was the call for `C=C(CN(C)Cc1ccccc1)c1ccc(NC(=O)c2ccc(C(=C)CN(C)Cc3ccccc3)cc2)cc1` ? inactive
